System: K. pneumoniae GN_106, PmxR
Conditions: GN 106, PmxR
Positions of bridges follow the written chain, without caps; N, C: chain ends. Non-standard residues stand in square brackets, D forms with d. Residues, ends and D or L forms follow the SMILES beside them. *: point of attachment. dPhe(4-NO2) = N[C@H](Cc1ccc([N+](=O)[O-])cc1)C(=O)O; Decanoyl(3R-OH) = CCCCCCC[C@@H](O)CC(=O)*; dDab = NCC[C@@H](N)C(=O)O; dDap = NC[C@@H](N)C(=O)O; Dab = NCC[C@H](N)C(=O)O; Dap = NC[C@H](N)C(=O)O
MIC K. pneumoniae GN_106, PmxR overview
Write the number in µg/mL without appending the unit.

compound | assaySystem | MIC K. pneumoniae GN_106, PmxR, µg/mL
CCCCCCC[C@@H](O)CC(=O)N[C@H](CCCCN)C(=O)N[C@H]1CCNC(=O)[C@H](CC(C)C)NC(=O)[C@H](CCN)NC(=O)[C@H](CCN)NC(=O)[C@H](CC(C)C)NC(=O)[C@@H](Cc2ccccc2)NC(=O)[C@H](CCN)NC1=O [compound 5381] ({Decanoyl(3R-OH)}-[dK][Dab][Dab][dF]L[Dab][Dab]L; lactam 2-C) | K. pneumoniae GN_106, PmxR | 4
CCCCCCC[C@@H](O)CC(=O)N[C@H](CCN)C(=O)N[C@H]1CCNC(=O)[C@H](Cc2c[nH]cn2)NC(=O)[C@H](CCN)NC(=O)[C@H](CCN)NC(=O)[C@H](CC(C)C)NC(=O)[C@@H](Cc2ccccc2)NC(=O)[C@H](CCN)NC1=O [compound 8911] ({Decanoyl(3R-OH)}-[dDab][Dab][Dab][dF]L[Dab][Dab]H; lactam 2-C) | K. pneumoniae GN_106, PmxR | 32

Report MIC K. pneumoniae GN_106, PmxR, nothing else, for this compound: CCCCCCC[C@@H](O)CC(=O)N[C@H](CC(N)=O)C(=O)N[C@H]1CCNC(=O)[C@H](CC(C)C)NC(=O)[C@H](CCN)NC(=O)[C@H](CCN)NC(=O)[C@H](Cc2ccccc2)NC(=O)[C@@H](CC(C)C)NC(=O)[C@H](CCN)NC1=O [compound 6432] ({Decanoyl(3R-OH)}-[dN][Dab][Dab][dL]F[Dab][Dab]L; lactam 2-C)
4

Report MIC K. pneumoniae GN_106, PmxR, nothing else, for this compound: CCCCCCC[C@@H](O)CC(=O)N[C@H](CCN)C(=O)N[C@H]1CCNC(=O)[C@H](Cc2ccc(O)cc2)NC(=O)[C@H](CCN)NC(=O)[C@H](CCN)NC(=O)[C@H](CC(C)C)NC(=O)[C@@H](Cc2ccccc2)NC(=O)[C@H](CCN)NC1=O [compound 6511] ({Decanoyl(3R-OH)}-[dDab][Dab][Dab][dF]L[Dab][Dab]Y; lactam 2-C)
8

Report MIC K. pneumoniae GN_106, PmxR, nothing else, for this compound: CCCCCCC[C@@H](O)CC(=O)N[C@H](CCN)C(=O)N[C@H]1CCNC(=O)[C@H](Cc2ccccc2)NC(=O)[C@H](CN)NC(=O)[C@H](CCN)NC(=O)[C@H](CC(C)C)NC(=O)[C@@H](Cc2ccccc2)NC(=O)[C@H](CCN)NC1=O [compound 5385] ({Decanoyl(3R-OH)}-[dDab][Dab][Dab][dF]L[Dab][Dap]F; lactam 2-C)
16

Report MIC K. pneumoniae GN_106, PmxR, nothing else, for this compound: CCCCCCC[C@@H](O)CC(=O)N[C@H](CN)C(=O)N[C@H]1CCNC(=O)[C@H](CC(C)C)NC(=O)[C@H](CCN)NC(=O)[C@H](CCN)NC(=O)[C@H](Cc2ccccc2)NC(=O)[C@@H](CC(C)C)NC(=O)[C@H](CCN)NC1=O [compound 6427] ({Decanoyl(3R-OH)}-[dDap][Dab][Dab][dL]F[Dab][Dab]L; lactam 2-C)
4

Report MIC K. pneumoniae GN_106, PmxR, nothing else, for this compound: CCCCCCC[C@@H](O)CC(=O)N[C@H](Cc1ccc([N+](=O)[O-])cc1)C(=O)N[C@H]1CCNC(=O)[C@H](CC(C)C)NC(=O)[C@H](CCN)NC(=O)[C@H](CCN)NC(=O)[C@H](Cc2ccccc2)NC(=O)[C@@H](CC(C)C)NC(=O)[C@H](CCN)NC1=O [compound 6433] ({Decanoyl(3R-OH)}-[dPhe(4-NO2)][Dab][Dab][dL]F[Dab][Dab]L; lactam 2-C)
4

Every entry's value here was drawn from patent US11279733B2.
